ASSAY OVERVIEW: Circular dichroism helicity determination
Type: physicochemical
EXPERIMENTAL CONTEXT: percent helicity; peptide-SUV complexes (20:1 EPC:Chol., Ri=30 and Ri=50), 37° C.
No end group written: not given here.
He (%) SUVs strictly under 50% means Satisfied; at 50% or over means Not satisfied.

Asked: Consider PLFRELLNELLEALKQKLK [compound 55] . Does its He (%) SUVs lie strictly below 50%?
Given back: Not satisfied

Asked: In plain terms, does Ac-EWLKAFYEKVLEKLKELF-NH2 [peptide 238, reference compound] come in under 50% for He (%) SUVs?
Given back: Not satisfied

Asked: Please let me know if PVLDLFRNLLEELLEALQKKLK [compound 66] shows He (%) SUVs below 50%.
Given back: Not satisfied

Asked: Problem: For the substance PVLELFENLLERLLDALQKKLK [peptide 146] , is He (%) SUVs under 50%?
Given back: Not satisfied

Asked: hey, is He (%) SUVs for PVLDLFRELLEELKQKLK [compound 210] lower than 50% or not?
Given back: Satisfied

Asked: # check: He (%) SUVs < 50% for PVLDLFRNLLEKLLEALEQKLK [compound 49]
Given back: Not satisfied

Asked: Answer whether the substance EWLEAFYKKVLEKLKELF [peptide 246, reference compound] has He (%) SUVs strictly less than 50%
Given back: Satisfied

Asked: Problem: For the substance PVLDEFREKLNERLEALKQKLK [peptide 109, reference compound] , is He (%) SUVs under 50%?
Given back: Satisfied

Asked: is_below(He (%) SUVs, 50%) for PVLDLFRELLNELLEALKQ [compound 60] ?
Given back: Not satisfied

Asked: A record lists DWLKAFYDKVFEKFKEFF [peptide 245, reference compound] . Is its He (%) SUVs below 50%?
Given back: Not satisfied

====

ASSAY OVERVIEW: Circular dichroism helicity determination
Type: physicochemical
EXPERIMENTAL CONTEXT: percent helicity; 5 μM peptide, 90% vol TFE, 37° C.
Experimental: Far UV circular dichroism spectra were recorded between 190 and 260 nm (in 0.5 nm or 0.2 nm increments) with a AVIV62DS spectrometer (AVIV Associates, Lakewood, N.J., USA) equipped with a thermoelectric cell holder and sample changer. The instrument was calibrated with (+)-10-camphoric acid. […] All spectra were recorded at 37° C. […]
No end group written: not given here.
RESULT TYPE: He (%) TFE
Number only, in %; omit the unit.

Asked: Need He (%) TFE of Ac-PVLDLFRELWEELKQKLK-NH2 [compound 199] , thanks.
Given back: 79

Asked: Name the reported He (%) TFE value associated with the substance Ac-PVLDLFKELLEELKQKLK-NH2 [compound 192]
Given back: 56

Asked: Please report the recorded He (%) TFE for PVLDEFREKLNERLEALKQKLK [peptide 109, reference compound] .
Given back: 58

Asked: Find the recorded He (%) TFE belonging to PVLDLFREWLNELLEALKQKLK [compound 37] and report it.
Given back: 73

Asked: Return reported He (%) TFE; argument: PLLNELLEALKQKLK [compound 104]
Given back: 55

Asked: Please give the measured He (%) TFE for this substance: Ac-PLLDLFRELLEELKQKLK-NH2 [compound 197]
Given back: 69

Asked: What does the data say about its He (%) TFE? Entry: PVLELFENLLERGLDALQKKLK [peptide 154]
Given back: 80

Asked: Recorded He (%) TFE for PVLDLFRELLNELLQKLK [compound 209] , please?
Given back: 62

Asked: Using the record for PVLDLFRNLLEKLLEALEQKLK [compound 49] , report its He (%) TFE.
Given back: 57

Asked: Please give the measured He (%) TFE for this substance: PVLELFENLLERLLDALQKKLK [peptide 146]
Given back: 95

Asked: // lookup He (%) TFE for PVLELFENLLERLLDWLQKKLK [compound 160]
Given back: 61

Asked: # query: He (%) TFE of entry PLDLFRELLNELLEALKQKLK [compound 85]
Given back: 69

Asked: Which He (%) TFE reading was recorded for the substance Ac-PVLDLFRELLEELKQKLK-NH2 [compound 193] ?
Given back: 87

Asked: Quick check: He (%) TFE of PLLELLKELLQELLEALKQKLK [compound 36] ?
Given back: 95

Asked: Value lookup for He (%) TFE; key = Ac-EWLKAFYEKVLEKLKELF-NH2 [peptide 238, reference compound]
Given back: 58

Asked: Param item = PAADAFREAANEAAEAAKQKAK [compound 105] ; retrieve measured He (%) TFE.
Given back: 65

Asked: Look up He (%) TFE for this substance: Ac-DWLKAFYDKVAEKLKEAF-NH2 [compound 240, reference compound]
Given back: 57

Asked: I have this substance here, VLDLFRELLNELLEALKQKLK [compound 67] , and I need its recorded He (%) TFE.
Given back: 94

Asked: Value lookup for He (%) TFE; key = PVLDAFRELLEALAQLKK [compound 223]
Given back: 51

Asked: Returns the measured He (%) TFE for the input substance. Input: PVLDLFRELLNEGLEALKQKLK [compound 8]
Given back: 93

Asked: Find the recorded He (%) TFE belonging to PVLDLFRELLEELKQKLK [compound 210] and report it.
Given back: 53

Asked: # query: He (%) TFE of entry PVLELFENLLERLWDALQKKLK [compound 163]
Given back: 55

Asked: Entry PVLDLFKELLNELLEALKQKLK [peptide 7] : reported He (%) TFE = ?
Given back: 73

Asked: Field request: He (%) TFE | item: PVLDLFNELLRELLEALQKKLK [compound 40]
Given back: 77

Asked: So what does the record say about He (%) TFE for PVLDLFRELLNELWEALKQKLK [compound 28] ?
Given back: 81

Asked: Give its He (%) TFE value. Item: GVLELFENLLERLLDALQKKLK [peptide 145]
Given back: 58

Asked: Quick one: He (%) TFE of PLFRELLNELLEALKQKLK [compound 55] ?
Given back: 75

Asked: Can you share its He (%) TFE? I mean this substance: DWLKAFYDKVAEKLKEAF [peptide 244, reference compound]
Given back: 48

Asked: Tell me the measured He (%) TFE of PVLDLFRELLEELLKALKKKLK [compound 39] , please.
Given back: 72

Asked: Entry under review: PVLDEFREKLNEALEALKQKLK [peptide 94, reference compound] . Reported He (%) TFE?
Given back: 63

Asked: Please report the recorded He (%) TFE for PVLDLFRELLELLKQKLK [compound 217] .
Given back: 70

Asked: Given the entry Ac-PVLDEFREKLNEELEALKQKLK-NH2 [peptide 75, reference compound] , report its measured He (%) TFE.
Given back: 55

Asked: Give the measured He (%) TFE of PVLDLFRELLNELLEALKQ [compound 60] .
Given back: 84

Asked: Need He (%) TFE, item PVLELFENLLERLGDALQKKLK [peptide 148]
Given back: 80

Asked: Endpoint output: He (%) TFE of Ac-PVLDLFRELLEEWKQKLK-NH2 [compound 215] . Value?
Given back: 68

Asked: Can you look up the measured He (%) TFE of PVLELFENLLERLLDAWQKKLK [compound 164] for me?
Given back: 61

Asked: For PVLDLFRELLNEWLEALKQKLK [compound 54] , what is its reported He (%) TFE?
Given back: 78

Asked: Value lookup for He (%) TFE; key = PVLELFENLWERLLDALQKKLK [peptide 149]
Given back: 47

Asked: What does the record list as He (%) TFE for PVLDLFRELLEELQKKLK [compound 220] ?
Given back: 64

Asked: // He (%) TFE lookup, key: Ac-PVLELFRELLEELKQKLK-NH2 [compound 194]
Given back: 93

Asked: Requested field: He (%) TFE. Item: PVLDLFRELLNELLEWLKQKLK [compound 3]
Given back: 95

Asked: He (%) TFE lookup needed for PVLDLFRELWNELLEALKQKLK [peptide 15] , thanks.
Given back: 68

Asked: // returns reported He (%) TFE for input PVLDLFRNLLEELLEALQKKLK [compound 66]
Given back: 70

====

ASSAY OVERVIEW: Circular dichroism helicity determination
Format: physicochemical
EXPERIMENTAL CONTEXT: percent helicity; peptide-micelle complexes, Ri=100, 37° C.
No end group written: not given here.
Can you tell me He (%) mics for the items I'm about to list?
Give a bare numeral; the unit % is implied.

Asked: Query (substance): PVLDLFRELLNELLEALKQ [compound 60] ; field requested: He (%) mics
Given back: 83

Asked: Looking for the measured He (%) mics of PVLDLFRELLNEWLEALKQKLK [compound 54] , can you help?
Given back: 71

Asked: Quick check: He (%) mics of PLLNELLEALKQKLK [compound 104] ?
Given back: 49

Asked: I would be grateful if you could share the reported He (%) mics for DWLKAFYDKVAEKLKEAF [peptide 244, reference compound] .
Given back: 40

Asked: Can you share its He (%) mics? I mean this substance: PLDLFRELLNELLEALKQKLK [compound 85]
Given back: 61

Asked: Value lookup for He (%) mics; key = Ac-PVLDEFREKLNEELEALKQKLK-NH2 [peptide 75, reference compound]
Given back: 28

Asked: # lookup: He (%) mics of PVLDLFRNLLEKLLEALEQKLK [compound 49]
Given back: 65

Asked: Please report the recorded He (%) mics for PVLDLFKELLNELLEALKQKLK [peptide 7] .
Given back: 89

Asked: Which He (%) mics is listed for PVLELFENLLERLWDALQKKLK [compound 163] ?
Given back: 53

Asked: // query He (%) mics value for entry EWLKAFYEKVLEKLKELF [peptide 248, reference compound]
Given back: 45

Asked: Given PVLDLFREWLNELLEALKQKLK [compound 37] , state its recorded He (%) mics.
Given back: 75

Asked: Value lookup for He (%) mics; key = PVLDLFRELLNELLQKLK [compound 209]
Given back: 71

Asked: Given the substance PVLDLFRELLNELWEALKQKLK [compound 28] , what is its reported He (%) mics?
Given back: 98

Asked: Entry PVLDAFRELLEALAQLKK [compound 223] has what He (%) mics?
Given back: 56

Asked: Can you look up the measured He (%) mics of PVLDEFREKLNEPLEALKQKLK [compound 113] for me?
Given back: 22

Asked: Value lookup for He (%) mics; key = PVLDLFRELLEELQKKLK [compound 220]
Given back: 64

Asked: Query (substance): EWLEAFYKKVLEKLKELF [peptide 246, reference compound] ; field requested: He (%) mics
Given back: 44

Asked: Consider the substance Ac-EWLKAFYEKVLEKLKELF-NH2 [peptide 238, reference compound] and give its measured He (%) mics.
Given back: 72

Asked: What He (%) mics value was documented for this substance, GVLELFENLLERLLDALQKKLK [peptide 145] ?
Given back: 51

Asked: Find the recorded He (%) mics belonging to PVLDEFREKLNEALEALKQKLK [peptide 94, reference compound] and report it.
Given back: 70

Asked: Can you share its He (%) mics? I mean this substance: PVLELFENLLERLLDALQKKLK [peptide 146]
Given back: 100

Asked: Item under review: Ac-PVLDLFRELLEEWKQKLK-NH2 [compound 215] . Reported He (%) mics?
Given back: 63

Asked: Given the entry PVLDLFRELLEELKQKLK [compound 210] , report its measured He (%) mics.
Given back: 63

Asked: So what does the record say about He (%) mics for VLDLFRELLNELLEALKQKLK [compound 67] ?
Given back: 90

Asked: Look up He (%) mics for this substance: PVLDLFRELLELLKQKLK [compound 217]
Given back: 78

Asked: State the recorded He (%) mics for this entry: PVLDLFNELLRELLEALQKKLK [compound 40]
Given back: 84

Asked: Given PVLELFENLLERLLDWLQKKLK [compound 160] , state its recorded He (%) mics.
Given back: 73

Asked: So what does the record say about He (%) mics for PVLELFENLLERGLDALQKKLK [peptide 154] ?
Given back: 76

Asked: Report He (%) mics for PVLELFENLLERLLDAWQKKLK [compound 164] please.
Given back: 66

Asked: Which measured He (%) mics value corresponds to PVLDLFRELWNELLEALKQKLK [peptide 15] ?
Given back: 60

Asked: Request the reported He (%) mics associated with PVLDLFRNLLEELLEALQKKLK [compound 66]
Given back: 82

Asked: Endpoint output: He (%) mics of PLLELLKELLQELLEALKQKLK [compound 36] . Value?
Given back: 100

Asked: # input substance: Ac-PVLDLFRELLEELKQKLK-NH2 [compound 193] ; wanted: its He (%) mics
Given back: 88

Asked: // He (%) mics lookup, key: DWFKAFYDKVAEKFKEAF [peptide 243, reference compound]
Given back: 64

Asked: Look up He (%) mics for this substance: LDDLLQKWAEAFNQLLKK [peptide 237, reference compound]
Given back: 66

Asked: So what's the measured He (%) mics for this one? PAADAFREAANEAAEAAKQKAK [compound 105]
Given back: 28

Asked: Could you tell me which He (%) mics is on file for Ac-PLLDLFRELLEELKQKLK-NH2 [compound 197] ?
Given back: 70

Asked: Which He (%) mics reading was recorded for the substance DWLKAFYDKVFEKFKEFF [peptide 245, reference compound] ?
Given back: 77

Asked: Need He (%) mics of PVLDLFRELLNELLEWLKQKLK [compound 3] , thanks.
Given back: 95

Asked: Which He (%) mics is listed for PVLDLFRELLEELLKALKKKLK [compound 39] ?
Given back: 69

Asked: // lookup He (%) mics for Ac-PVLDLFRELWEELKQKLK-NH2 [compound 199]
Given back: 77

Asked: Please give the measured He (%) mics for this substance: Ac-PVLELFRELLEELKQKLK-NH2 [compound 194]
Given back: 93

Asked: Look up He (%) mics: PLFRELLNELLEALKQKLK [compound 55]
Given back: 72

Asked: Quick check: He (%) mics of PVLDLFRELLNEGLEALKQKLK [compound 8] ?
Given back: 90

Asked: Field request: He (%) mics | item: PVLDWFRELLNELLEALKQKLK [compound 35]
Given back: 59

Asked: Name the recorded He (%) mics for PVLELFENWLERLLDALQKKLK [compound 162] .
Given back: 83

Asked: Which He (%) mics value belongs to Ac-DWLKAFYDKVAEKLKEAF-NH2 [compound 240, reference compound] ?
Given back: 68
